Target: Isoform A of Ketohexokinase (Peripheral) (Human, UniProt P50053)
Sequence (P50053 whole entry): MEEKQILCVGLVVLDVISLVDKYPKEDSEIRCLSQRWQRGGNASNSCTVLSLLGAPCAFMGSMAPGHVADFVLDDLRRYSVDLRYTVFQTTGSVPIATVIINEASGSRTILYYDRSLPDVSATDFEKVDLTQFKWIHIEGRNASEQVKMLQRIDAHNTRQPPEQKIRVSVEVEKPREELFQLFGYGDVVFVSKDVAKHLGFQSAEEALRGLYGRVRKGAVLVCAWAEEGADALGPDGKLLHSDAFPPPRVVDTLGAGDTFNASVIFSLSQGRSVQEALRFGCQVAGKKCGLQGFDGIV
Test: KHK Biochemical Assay
parameter measured: pIC50
Numbers only, as −log10 of the molar value.

Cc1cc(-c2nc(N3CC[C@@H]3C(F)(F)F)nc3c2CCC3(F)F)ccc1C1(N)COC1 | 8.89
C[C@H]1[C@H](O)CN1c1nc2c(c(-c3ccc(C(C)(C)O)cc3)n1)CCC2 | 6.35
C[C@H]1[C@H](O)CN1c1nc2c(c(-c3cccc(S(N)(=O)=O)c3)n1)CCC2 | 7.45

Give me pIC50 for each of these compounds, listed below.
1. C[C@H]1[C@H](O)CN1c1nc(-c2ccc3c(c2)COCC32CCC(=O)N2)c2c(n1)C(F)(F)CC2 (some centres not stated)
2. C[C@H]1CCN1c1nc2c(c(-c3nc4ccccc4[nH]3)n1)CCC2
3. C[C@H]1CCN1c1nc2c(c(-c3ccc4c(c3)CCNC4=O)n1)CCC2

Solution:
1. 7.80
2. 6.53
3. 7.54

Values compiled from BindingDB's records for patent US12410160.
